target_of_assay: Tau protein (wild-type K18) (Homo sapiens, UniProt P10636)
Construct: Tau protein (wild-type K18)
Sequence (P10636 561-685 limits assumed): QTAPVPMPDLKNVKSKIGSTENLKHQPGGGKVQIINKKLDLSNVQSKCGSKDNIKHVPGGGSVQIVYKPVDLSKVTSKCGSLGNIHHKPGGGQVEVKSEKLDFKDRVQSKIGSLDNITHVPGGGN
procedure_text: Tau protein aggregation inhibition test (thioflavin T assay)
Type: biochemical
condition_notes: 50 uM test compound; heparin/DTT-induced aggregation, 37° C. 5 days; ThT fluorescence vs tau-only control = 100%
Parameter Tau aggregation remaining (ThT fluorescence, % of tau-only control): see the listing below.
recorded_endpoint: Tau aggregation remaining (ThT fluorescence, % of tau-only control)

# molecule, target_of_assay, result
records = [
    ("O=C1NC(=O)C(Cc2ccsc2)S1 (stereo not drawn)", "Tau protein (wild-type K18) (Homo sapiens, UniProt P10636)", "55.97 % of control"),
    ("O=C1NC(=O)/C(=C/c2ccsc2)S1", "Tau protein (wild-type K18) (Homo sapiens, UniProt P10636)", "74.09 % of control"),
    ("CCN1C(=O)/C(=C/c2c[nH]c3ccncc23)SC1=S", "Tau protein (wild-type K18) (Homo sapiens, UniProt P10636)", "69.83 % of control"),
    ("CN1C(=O)N/C(=C\\c2csc3ccccc23)C1=O", "Tau protein (wild-type K18) (Homo sapiens, UniProt P10636)", "88.61 % of control"),
    ("O=C1NC(=S)S/C1=C\\c1ccoc1", "Tau protein (wild-type K18) (Homo sapiens, UniProt P10636)", "71.163 % of control"),
    ("O=C1NC(=S)SC1Cc1ccoc1 (stereo not drawn)", "Tau protein (wild-type K18) (Homo sapiens, UniProt P10636)", "83.45 % of control"),
]

====

target_of_assay: aggregated tau protein (wild-type K18) (Homo sapiens)
Construct: Tau protein (wild-type K18)
Sequence (P10636 561-685 limits assumed): as above
procedure_text: Tau protein aggregate degradation test (thioflavin T assay)
Assay type: biochemical
condition_notes: 500 uM test compound; pre-aggregated tau, further 5 days at 37° C.; ThT fluorescence vs control = 100%
Each item that follows carries a reported ThT fluorescence remaining (% of control).
recorded_endpoint: ThT fluorescence remaining (% of control)

# compound, target_of_assay, result
records = [
    ("CCN1C(=O)/C(=C/c2c[nH]c3ncccc23)NC1=S [DN204816]", "aggregated tau protein (wild-type K18) (Homo sapiens)", "33.92 % of control"),
    ("CCN1C(=O)/C(=C/c2cccs2)NC1=S [DN204815]", "aggregated tau protein (wild-type K18) (Homo sapiens)", "36.97 % of control"),
    ("O=C1NC(=S)SC1Cc1c[nH]c2ncccc12 (stereo not drawn) [DN204304]", "aggregated tau protein (wild-type K18) (Homo sapiens)", "50.23 % of control"),
    ("O=C1NC(=S)SC1Cc1ccoc1 (stereo not drawn) [DN204305]", "aggregated tau protein (wild-type K18) (Homo sapiens)", "56.43 % of control"),
    ("O=C1NC(=S)S/C1=C\\c1ccoc1 [DN204298]", "aggregated tau protein (wild-type K18) (Homo sapiens)", "29.73 % of control"),
    ("O=C1NC(=S)S/C1=C\\c1ccc2occc2c1 [DN204809]", "aggregated tau protein (wild-type K18) (Homo sapiens)", "30.87 % of control"),
]

====

target_of_assay: Tau protein (wild-type K18) (Homo sapiens, UniProt P10636)
Construct: Tau protein (wild-type K18)
procedure_text: Tau protein aggregation inhibition test (thioflavin T assay)
Assay type: biochemical
condition_notes: 500 uM test compound; heparin/DTT-induced aggregation, 37° C. 5 days; ThT fluorescence vs tau-only control = 100%
recorded_endpoint: Tau aggregation remaining (ThT fluorescence, % of tau-only control)

# molecule, target_of_assay, result
rows = [
    ("O=C1NC(=O)/C(=C/c2c[nH]c3ncccc23)S1 [DN204286]", "Tau protein (wild-type K18) (Homo sapiens, UniProt P10636)", "82.71 % of control"),
    ("O=C1NC(=S)SC1Cc1c[nH]c2ncccc12 (stereo not shown) [DN204304]", "Tau protein (wild-type K18) (Homo sapiens, UniProt P10636)", "39.54 % of control"),
    ("CN1C(=O)N/C(=C\\c2c[nH]c3cccnc23)C1=O [DN204673]", "Tau protein (wild-type K18) (Homo sapiens, UniProt P10636)", "55.87 % of control"),
    ("CCN1C(=O)/C(=C/c2ccoc2)NC1=S [DN204814]", "Tau protein (wild-type K18) (Homo sapiens, UniProt P10636)", "28.47 % of control"),
    ("CN1C(=O)N/C(=C\\c2csc3ccccc23)C1=O [DN204671]", "Tau protein (wild-type K18) (Homo sapiens, UniProt P10636)", "77.02 % of control"),
    ("O=C1NC(=S)S/C1=C\\c1ccsc1 [DN204299]", "Tau protein (wild-type K18) (Homo sapiens, UniProt P10636)", "33.932 % of control"),
    ("CCN1C(=O)C(Cc2ccc3occc3c2)NC1=S (stereo not shown) [DN205353]", "Tau protein (wild-type K18) (Homo sapiens, UniProt P10636)", "66.948 % of control"),
    ("O=C1NC(=O)C(Cc2ccoc2)S1 (stereo not shown) [DN204292]", "Tau protein (wild-type K18) (Homo sapiens, UniProt P10636)", "60.16 % of control"),
    ("CCN1C(=O)/C(=C/c2c[nH]c3cccnc23)NC1=S [DN204817]", "Tau protein (wild-type K18) (Homo sapiens, UniProt P10636)", "66.18 % of control"),
    ("CCN1C(=O)/C(=C/c2cccs2)NC1=S [DN204815]", "Tau protein (wild-type K18) (Homo sapiens, UniProt P10636)", "70.7 % of control"),
    ("CCN1C(=O)/C(=C/c2cccc3ccccc23)SC1=S [DN205783]", "Tau protein (wild-type K18) (Homo sapiens, UniProt P10636)", "69.79 % of control"),
    ("O=C1NC(=O)/C(=C/c2ccsc2)S1 [DN204288]", "Tau protein (wild-type K18) (Homo sapiens, UniProt P10636)", "80.79 % of control"),
    ("CCN1C(=O)/C(=C/c2c[nH]c3ccncc23)SC1=S [DN205780]", "Tau protein (wild-type K18) (Homo sapiens, UniProt P10636)", "33.02 % of control"),
]
